Assay: Cytotoxicity against human HEK293T cells assessed as inhibition of cell viability incubated for 72 hrs by MTS assay
Type: toxicity, cell-based, HEK-293T
parameter_measured: IC50 at 72 h (µM)

Cc1oc2ccc(O)c(CN3CCCCCC3)c2c1C(=O)Nc1ccc(C(F)(F)F)cc1 : 34

---

Test system: RPMI-8226
Assay: Cytotoxicity against human RPMI-8226 cells assessed as inhibition of cell viability incubated for 72 hrs by MTS assay
Type: functional, cell-based
Details: RPMI-8226, 72 h
pIC50: −log10 of the molar value.
parameter_measured: pIC50

Cc1ccc(NC(=O)c2c(C)oc3ccc(O)c(CN4CCCCCC4)c23)cc1 : 4.80

---

Tested on: HepG2
Assay: Cytotoxicity against human HepG2 cells assessed as reduction in cell viability incubated for 24 hrs by MTT assay
Format: functional, cell-based
Conditions: HepG2, 24 h
pIC50: −log10 of the molar value.
parameter_measured: pIC50

CN(C)CCCNC(=O)c1ccc(-n2cc(-c3ccc4c(c3)c3cc(-c5cn(-c6ccc(C(=O)NCCCN(C)C)cc6)nn5)ccc3n4CCCN(C)C)nn2)cc1 : 5.37

---

Experiment: Cytotoxicity against human JIM1 cells assessed as inhibition of cell viability incubated for 72 hrs by MTS assay
Format: functional, cell-based
Settings: JIM1, 72 h
pIC50: −log10 of the molar value.
Measured pIC50 values are reported for all entries that follow.
parameter_measured: pIC50

Cc1oc2ccc(O)c(CN3CCCCCC3)c2c1C(=O)Nc1ccc(C(F)(F)F)cc1 : 5.20
Cc1ccc(NC(=O)c2c(C)oc3ccc(O)c(CN4CCCCCC4)c23)cc1 : 4.85

---

Assay: Cytotoxicity against human Fibroblast cells assessed as inhibition of cell viability incubated for 72 hrs by MTS assay
Type: toxicity, cell-based
parameter_measured: IC50 at 72 h (µM)

Cc1oc2ccc(O)c(CN3CCCCCC3)c2c1C(=O)Nc1ccc(C(F)(F)F)cc1 : 19.6

---

Tested on: MCF7
Experiment: Cytotoxicity against human MCF7 cells assessed as reduction in cell viability incubated for 24 hrs by MTT assay
Assay type: functional, cell-based
Settings: MCF7, 24 h
pIC50: −log10 of the molar value.
parameter_measured: pIC50

CN(C)CCCNC(=O)c1ccc(-n2cc(-c3ccc4c(c3)c3cc(-c5cn(-c6ccc(C(=O)NCCCN(C)C)cc6)nn5)ccc3n4CCCN(C)C)nn2)cc1 : 5.17
